assay_text: physchem
test_parameters: pH 6.7, aqueous buffer

molecule	solubility
CCCC(CCC)C(=O)O [Divalproex sodium, sodium hydrogen divalproate]	200 mg/mL

----------
assay_text: physchem
test_parameters: pH 4.7, aqueous buffer
endpoint_name: solubility (µg/mL)

molecule	result_number
CCCC(CCC)C(=O)O [Divalproex sodium, sodium hydrogen divalproate]	2000

----------
assay_text: physchem
test_parameters: pH 1, simulated gastric fluid

molecule	solubility, µg/mL
CCCC(CCC)C(=O)O [Divalproex sodium, sodium hydrogen divalproate]	1000
